Values compiled from the supplement of paper PMC9112550.

# Test system: Escherichia coli TOP10
# assay-overview: shrunken log2 fold change of peptide-encoding DNA abundance (4.5 h post-induction vs induction); higher = less antimicrobial activity (less host growth inhibition)
# run-parameters: time post-induction: 4.5 h; library: site-saturation at positions 5, 18, 19, 20
parameter-measured: shrunken log2 fold change
Form rule: numeric answer, no unit written next to it.

Incoming: GET /values?readout=shrunken log2 fold change&system=Escherichia coli TOP10&item= RRIRDRPPRLPRPRPRPHPIPRP
Outgoing: -0.152

Incoming: Field: shrunken log2 fold change (Escherichia coli TOP10). Entry: RRIRMRPPRLPRPRPRPVHAPRP
Outgoing: 1.18

Incoming: Lab request: please report shrunken log2 fold change under test system Escherichia coli TOP10 for RRIRMRPPRLPRPRPRPEAPPRP
Outgoing: 3.4

Incoming: Give the reported shrunken log2 fold change for RRIRMRPPRLPRPRPRPTWPPRP (system: Escherichia coli TOP10).
Outgoing: 0.837

Incoming: Find shrunken log2 fold change (Escherichia coli TOP10) for the entry RRIRFRPPRLPRPRPRPIMIPRP
Outgoing: -0.113

Incoming: Provide the documented shrunken log2 fold change with Escherichia coli TOP10 as the system for RRIRPRPPRLPRPRPRPHNWPRP
Outgoing: 0.0255

Incoming: Query the reported shrunken log2 fold change for Escherichia coli TOP10; item: RRIRIRPPRLPRPRPRPNWGPRP
Outgoing: -0.205

Incoming: Requested read-out shrunken log2 fold change, target or system Escherichia coli TOP10, entry RRIRHRPPRLPRPRPRPSWRPRP
Outgoing: -0.0493

Incoming: Kindly state the measured shrunken log2 fold change obtained for RRIRSRPPRLPRPRPRPPPYPRP with Escherichia coli TOP10.
Outgoing: 0.337

Incoming: Request - read-out shrunken log2 fold change | tested on Escherichia coli TOP10 | sequence RRIRNRPPRLPRPRPRPRLFPRP
Outgoing: 0.0322

Incoming: Please provide the recorded shrunken log2 fold change for RRIRVRPPRLPRPRPRPEQCPRP , tested on Escherichia coli TOP10.
Outgoing: 0.171

Incoming: Reported shrunken log2 fold change for Escherichia coli TOP10, given RRIRPRPPRLPRPRPRPNVVPRP ?
Outgoing: -0.0229

Incoming: Notebook: pull reported shrunken log2 fold change for Escherichia coli TOP10, entry RRIRVRPPRLPRPRPRPAPQPRP
Outgoing: 0.618

Incoming: I'm curious: which shrunken log2 fold change was measured for RRIRGRPPRLPRPRPRPPIVPRP tested on Escherichia coli TOP10?
Outgoing: 0.0957

Incoming: Value wanted: shrunken log2 fold change (Escherichia coli TOP10) of entry RRIRQRPPRLPRPRPRPNMSPRP
Outgoing: -0.313

Incoming: Could you share what shrunken log2 fold change was measured for RRIRGRPPRLPRPRPRPRQSPRP , tested on Escherichia coli TOP10?
Outgoing: 0.647

Incoming: API: value(readout=shrunken log2 fold change, system=Escherichia coli TOP10) for record RRIRFRPPRLPRPRPRPMSIPRP
Outgoing: -0.354

Incoming: Form field: shrunken log2 fold change recorded for RRIRDRPPRLPRPRPRPINPPRP with Escherichia coli TOP10 (enter value)
Outgoing: -0.277

Incoming: Test system Escherichia coli TOP10; read-out shrunken log2 fold change; what value for RRIRHRPPRLPRPRPRPDCFPRP ?
Outgoing: 0.3

Incoming: For Escherichia coli TOP10, provide shrunken log2 fold change of RRIRVRPPRLPRPRPRPELNPRP please.
Outgoing: -0.0839

Incoming: Param readout= shrunken log2 fold change; system= Escherichia coli TOP10; entry= RRIRPRPPRLPRPRPRPCICPRP ; returns value.
Outgoing: -0.728

Incoming: Look up shrunken log2 fold change with Escherichia coli TOP10 for this sequence: RRIRIRPPRLPRPRPRPHNTPRP
Outgoing: -0.961

Incoming: Param readout= shrunken log2 fold change; system= Escherichia coli TOP10; entry= RRIRMRPPRLPRPRPRPDPYPRP ; returns value.
Outgoing: -0.0396

Incoming: For the record RRIRTRPPRLPRPRPRPDRWPRP , what value of shrunken log2 fold change is listed for Escherichia coli TOP10?
Outgoing: 0.0353

Incoming: Query for Escherichia coli TOP10: what shrunken log2 fold change does the record show for RRIRWRPPRLPRPRPRPARGPRP ?
Outgoing: 0.687

Incoming: Give recorded shrunken log2 fold change with Escherichia coli TOP10 for the following sequence: RRIRDRPPRLPRPRPRPQIHPRP
Outgoing: -0.145

Incoming: Notebook entry, Escherichia coli TOP10 assay: shrunken log2 fold change of RRIRQRPPRLPRPRPRPSEAPRP = ?
Outgoing: 0.17

Incoming: Enter reported shrunken log2 fold change observed with Escherichia coli TOP10 for RRIRYRPPRLPRPRPRPVEHPRP
Outgoing: -0.0137

Incoming: Hi! What's the reported shrunken log2 fold change for RRIRVRPPRLPRPRPRPFNCPRP on Escherichia coli TOP10?
Outgoing: -0.0327

Incoming: Test system Escherichia coli TOP10; read-out shrunken log2 fold change; what value for RRIRDRPPRLPRPRPRPKWTPRP ?
Outgoing: 0.0796

Incoming: Please provide the recorded shrunken log2 fold change for RRIRNRPPRLPRPRPRPYCRPRP , tested on Escherichia coli TOP10.
Outgoing: -0.982

Incoming: Request - read-out shrunken log2 fold change | tested on Escherichia coli TOP10 | sequence RRIRMRPPRLPRPRPRPGDEPRP
Outgoing: 0.818

Incoming: For the record RRIRPRPPRLPRPRPRPRRGPRP , what value of shrunken log2 fold change is listed for Escherichia coli TOP10?
Outgoing: 0.46

Incoming: I'm curious: which shrunken log2 fold change was measured for RRIRRRPPRLPRPRPRPDTWPRP tested on Escherichia coli TOP10?
Outgoing: -0.131

Incoming: Find shrunken log2 fold change (Escherichia coli TOP10) for the entry RRIRCRPPRLPRPRPRPMYWPRP
Outgoing: 0.0082

Incoming: Identify the measured shrunken log2 fold change of RRIRARPPRLPRPRPRPVSKPRP for Escherichia coli TOP10.
Outgoing: 0.141

Incoming: Lab note: need shrunken log2 fold change for RRIRNRPPRLPRPRPRPDRTPRP on Escherichia coli TOP10, anyone have it?
Outgoing: -0.161

Incoming: # get_value(readout= shrunken log2 fold change, system= Escherichia coli TOP10) for RRIRTRPPRLPRPRPRPPALPRP
Outgoing: 0.311

Incoming: Provide the documented shrunken log2 fold change with Escherichia coli TOP10 as the system for RRIRHRPPRLPRPRPRPIQYPRP
Outgoing: -0.122

Incoming: Request body: readout shrunken log2 fold change, system Escherichia coli TOP10, query RRIRPRPPRLPRPRPRPCGPPRP . Return the value.
Outgoing: 0.189

Incoming: # value lookup — system Escherichia coli TOP10, readout shrunken log2 fold change, item RRIRGRPPRLPRPRPRPAMPPRP
Outgoing: 0.492

Incoming: API: value(readout= shrunken log2 fold change, system= Escherichia coli TOP10, query= RRIRCRPPRLPRPRPRPPPAPRP )
Outgoing: 1.46

Incoming: Provide the documented shrunken log2 fold change with Escherichia coli TOP10 as the system for RRIRWRPPRLPRPRPRPHIGPRP
Outgoing: -0.079

Incoming: Query the reported shrunken log2 fold change for Escherichia coli TOP10; item: RRIRLRPPRLPRPRPRPEGLPRP
Outgoing: 0.206

Incoming: Notebook entry, Escherichia coli TOP10 assay: shrunken log2 fold change of RRIRGRPPRLPRPRPRPCKQPRP = ?
Outgoing: 0.0431

Incoming: Which shrunken log2 fold change is reported with Escherichia coli TOP10 for this entry: RRIRKRPPRLPRPRPRPQIMPRP ?
Outgoing: -0.103

Incoming: Give shrunken log2 fold change (Escherichia coli TOP10) of the following sequence: RRIRCRPPRLPRPRPRPHALPRP
Outgoing: -0.0688

Incoming: Test system Escherichia coli TOP10; read-out shrunken log2 fold change; what value for RRIRARPPRLPRPRPRPWSSPRP ?
Outgoing: -0.656

Incoming: What is its shrunken log2 fold change for Escherichia coli TOP10? Entry: RRIRARPPRLPRPRPRPNNYPRP
Outgoing: -0.356

Incoming: Notebook entry, Escherichia coli TOP10 assay: shrunken log2 fold change of RRIRCRPPRLPRPRPRPNPCPRP = ?
Outgoing: -0.209

Incoming: Look up shrunken log2 fold change with Escherichia coli TOP10 for this sequence: RRIRIRPPRLPRPRPRPTHMPRP
Outgoing: 0.578

Incoming: Kindly state the measured shrunken log2 fold change obtained for RRIRWRPPRLPRPRPRPANMPRP with Escherichia coli TOP10.
Outgoing: -0.0899

Incoming: Lab note: need shrunken log2 fold change for RRIRRRPPRLPRPRPRPKVPPRP on Escherichia coli TOP10, anyone have it?
Outgoing: -0.0226

Incoming: What measured shrunken log2 fold change is associated with RRIRIRPPRLPRPRPRPDWEPRP on Escherichia coli TOP10?
Outgoing: -0.0114

Incoming: What reported shrunken log2 fold change corresponds to RRIRCRPPRLPRPRPRPTSHPRP on Escherichia coli TOP10?
Outgoing: -0.348

Incoming: State its shrunken log2 fold change on Escherichia coli TOP10: RRIRFRPPRLPRPRPRPVFFPRP
Outgoing: 0.00921

Incoming: Give shrunken log2 fold change (Escherichia coli TOP10) of the following sequence: RRIRTRPPRLPRPRPRPAIQPRP
Outgoing: -0.216

Incoming: Request: shrunken log2 fold change, test system Escherichia coli TOP10, entry RRIRIRPPRLPRPRPRPAIQPRP
Outgoing: -0.143

Incoming: Which shrunken log2 fold change is reported with Escherichia coli TOP10 for this entry: RRIRIRPPRLPRPRPRPKEEPRP ?
Outgoing: 0.0133

Incoming: # returns recorded shrunken log2 fold change (system: Escherichia coli TOP10) for RRIRARPPRLPRPRPRPGEVPRP
Outgoing: 0.935

Incoming: Form: Entry = RRIRMRPPRLPRPRPRPTIWPRP | System = Escherichia coli TOP10 | shrunken log2 fold change = ____
Outgoing: 0.52

Incoming: Return shrunken log2 fold change measured with Escherichia coli TOP10 given this sequence: RRIRMRPPRLPRPRPRPVLMPRP
Outgoing: 0.229

Incoming: # get_value(readout= shrunken log2 fold change, system= Escherichia coli TOP10) for RRIRRRPPRLPRPRPRPANYPRP;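 also: peptides expressed intracellularly from a pBAD plasmid library in pooled LB shake-flask culture, induced with 0.3% L-arabinose, DNA abundance read by NGS, three biological replicates, DESeq2 with apeglm shrinkage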
Outgoing: -0.049
